Source listed as patent US10301261B2.

Below: a set of entries, each annotated with reported IC50.
# Measurement Target: full-length RORγt in Jurkat cells (Homo sapiens (Human))
# Test Summary: RORγt 5×RORE Assay in Jurkat Cells (Assay 2)
# Assay type: cell-based
# Stated Conditions: RORγt 5×RORE Nanoluc reporter

Look over these answered cases.
# Test Smiles, Measurement Target, IC50
records = [
    ("CCS(=O)(=O)c1ccc(CNC(=O)c2ccc3c(c2)nc(C[C@H]2CC[C@@H](C(F)(F)F)CC2)n3C2CC2)cc1", "full-length RORγt in Jurkat cells (Homo sapiens (Human))", "> 1000 nM"),
    ("CCS(=O)(=O)c1ccc(CNC(=O)c2cnc3c(c2)nc(C[C@H]2CC[C@@H](C(F)(F)F)CC2)n3C2CC2)cc1", "full-length RORγt in Jurkat cells (Homo sapiens (Human))", "> 1000 nM"),
]

Data request: Using the record for "CCS(=O)(=O)c1ccc(CNC(=O)c2ccc3c(c2)nc(O[C@H]2CC[C@@H](C(F)(F)F)CC2)n3CC(C)C)cc1" , state its measured IC50.
Data returned: > 1000 nM

Data request: Give me measured IC50, please, for this molecule: "CCn1c(Oc2ccc(C(F)(F)F)cc2)nc2cc(C(=O)NCc3ccc(S(=O)(=O)CC)cc3)ccc21"
Data returned: < 100 nM

Data request: State its IC50: "CCn1c(CN2CCC(C(F)(F)F)CC2)cc2cc(C(=O)N[C@@H](CO)c3ccc(S(=O)(=O)CC)cc3)ccc21"
Data returned: < 100 nM

Data request: Return IC50 for the following molecule: "CCS(=O)(=O)c1ccc([C@H](CO)NC(=O)c2ccc3c(c2)nc(Oc2ccc(C(F)(F)F)cc2)n3C2CC2)cc1"
Data returned: < 100 nM

Data request: Provide one value: measured IC50 of "CCS(=O)(=O)c1ccc([C@H](CO)NC(=O)c2ccc3c(c2)nc(O[C@H]2CC[C@H](C(F)(F)F)CC2)n3C2CC2)cc1"
Data returned: < 100 nM

====

# Measurement Target: full-length RORγt in Jurkat cells (Homo sapiens (Human), UniProt P51449)
# Sequence (P51449 other isoform, or with tags, fused parts or gaps): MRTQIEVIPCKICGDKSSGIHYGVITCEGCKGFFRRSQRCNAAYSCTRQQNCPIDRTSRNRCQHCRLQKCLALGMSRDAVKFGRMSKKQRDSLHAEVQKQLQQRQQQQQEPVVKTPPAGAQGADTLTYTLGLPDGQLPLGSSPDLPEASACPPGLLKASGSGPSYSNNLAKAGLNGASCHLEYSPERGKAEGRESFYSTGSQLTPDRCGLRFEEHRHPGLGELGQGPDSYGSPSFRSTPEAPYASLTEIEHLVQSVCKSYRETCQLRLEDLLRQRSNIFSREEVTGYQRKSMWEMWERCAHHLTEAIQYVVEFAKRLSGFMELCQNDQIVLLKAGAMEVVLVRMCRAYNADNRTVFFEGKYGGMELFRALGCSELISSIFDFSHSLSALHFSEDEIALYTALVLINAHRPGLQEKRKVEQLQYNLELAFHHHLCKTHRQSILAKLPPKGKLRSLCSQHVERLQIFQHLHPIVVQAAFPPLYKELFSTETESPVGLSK
# Test Summary: RORγt 5×RORE Assay in Jurkat Cells (Assay 2)
# Assay type: cell-based
# Stated Conditions: RORγt 5×RORE Nanoluc reporter
Measurement Label: IC50

Sample answers from the record:
# Test Smiles, IC50
measured = [
    ("CCn1c(Cc2ccc(C#N)cc2)cc2cc(C(=O)N[C@@H](CO)c3ccc(S(=O)(=O)CC)cn3)ccc21", "100 to 1000 nM"),
    ("CCS(=O)(=O)c1ccc(CNC(=O)c2ccc3c(c2)nc(C[C@H]2CC[C@@H](C(F)(F)F)CC2)n3CC(C)C)cc1", "> 1000 nM"),
    ("CCn1c(C[C@H]2CC[C@H](C(F)(F)F)CC2)cc2cc(C(=O)NCc3ccc(S(=O)(=O)CC)cn3)ccc21", "< 100 nM"),
]

Data request: Report measured IC50; entry is "CCS(=O)(=O)c1ccc(CNC(=O)c2cnc3c(c2)nc(C[C@H]2CC[C@H](C(F)(F)F)CC2)n3C2CC2)cc1"
Data returned: < 100 nM

Data request: Quickly give me recorded IC50 for "CCn1c(OCC2CCC(F)(F)CC2)nc2cc(C(=O)N[C@@H](CO)c3ccc(S(=O)(=O)CC)cc3)ccc21"
Data returned: > 1000 nM

Data request: Tell me IC50 reported for "CCS(=O)(=O)c1ccc(CNC(=O)c2ccc3c(c2)nc(C[C@H]2CC[C@H](OC)CC2)n3C2CC2)cc1"
Data returned: 100 to 1000 nM

Data request: Please look at this compound and report its IC50: "CCn1c(Cc2ccc3c(c2)OC(F)(F)O3)cc2cc(C(=O)N[C@@H](CO)c3ccc(S(=O)(=O)CC)cn3)ccc21"
Data returned: < 100 nM
